Origin of values: patent US20250327793A1

- ASSAY_SYSTEM: OR51E1 olfactory receptor (Homo sapiens, UniProt Q8TCB6, K299R)
- Construct: expressed in transfected cells
- Sequence (Q8TCB6 2-318 K299R limits assumed): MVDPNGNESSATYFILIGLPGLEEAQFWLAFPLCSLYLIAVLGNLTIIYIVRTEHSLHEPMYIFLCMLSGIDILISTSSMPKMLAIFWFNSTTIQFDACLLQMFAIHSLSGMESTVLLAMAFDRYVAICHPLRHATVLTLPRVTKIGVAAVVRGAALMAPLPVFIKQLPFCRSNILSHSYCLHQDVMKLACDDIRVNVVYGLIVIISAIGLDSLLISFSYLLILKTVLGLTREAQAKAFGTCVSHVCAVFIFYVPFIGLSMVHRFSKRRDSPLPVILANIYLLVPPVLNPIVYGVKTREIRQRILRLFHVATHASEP
- PROCEDURE_DETAILS: Butyric acid olfactory receptor antagonist cell-based inhibitory dose-response assay
- CONDITION_PARAMETERS: Table 5; butyric acid olfactory receptor antagonists, agonist concentration not given
pIC50: −log10 of the molar value.
ASSAY_ENDPOINT: pIC50

Solved entries (count: 2):
In [3]: df
Out[3]:
                                   compound  assay_endpoint  value_reported
0  CC(=O)C1(C)CC(C)C23CCC(CC12)C3 (stereo not drawn)           pIC50            4.22
1  CC(=O)OC(C)C1CC(C)C23CCC(CC12)C3 (stereo not drawn)           pIC50            4.01

I = CC(=O)OC(C)C1(C)CC(C)C23CCC(CC12)C3 (stereo not drawn)
II = CC1C(C)C23CCC(CC2C1(C)C=O)C3 (stereo not drawn)
INPUT: // pick larger pIC50 from pair: I vs II To answer, give the label that identifies your chosen option.
OUTPUT: I
(I: 4.26, II: 3.57)
